Molecular target: SHP2-C SH2
Test: SH2 binding enrichment of the phosphorylated peptide, bacterial display (enrichment ratio); higher = better substrate or ligand; peptides without Tyr show the background
Would you kindly list SH2 binding enrichment for each of these sequences?

Memo: PFTRNYFVWAV [CYBA_Y87_R90W_YF] , reported SH2 binding enrichment: 0.771

Memo: SLIDGYFRLTA [JAK2_Y372_YF] , reported SH2 binding enrichment: 5.5

Memo: KAIMTYVPSFY [ACTN4_Y260_S262P] , reported SH2 binding enrichment: 1.03

Memo: FTRNFYVWAVL [CYBA_Y88_R90W_YF] , reported SH2 binding enrichment: 0.737

Memo: QNKEDYAGLKE [GSTO1_Y139] , reported SH2 binding enrichment: 0.902

Memo: LMIKEYLTKEL [BAG3_Y457_E455K] , reported SH2 binding enrichment: 1

Memo: IKKLIYVFLVI [JAGN1_Y42_H44Y_YF] , reported SH2 binding enrichment: 1.79

---

Would you kindly list SH2 binding enrichment for each of these sequences?
Molecular target: SHP2-C SH2;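 note: peptide library displayed on the E. coli surface as eCPX fusions, selected cells deep-sequenced, score is each peptide's frequency after selection divided by its frequency in the input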
Test: SH2 binding enrichment of the phosphorylated peptide, bacterial display (enrichment ratio); higher = better substrate or ligand; peptides without Tyr show the background
API doc: respond with a numeric literal and nothing else, no unit.

Memo: ILGRFYERGSI [PAX5_Y73_T75R_YF] , reported SH2 binding enrichment: 1.16

Memo: VLTSTYRGGGG [HBA1_Y141_K140T] , reported SH2 binding enrichment: 0.645

Memo: ETPSEYLEIVR [TMEM130_Y412] , reported SH2 binding enrichment: 0.573

Memo: EGVPLYESATT [DCC_Y809] , reported SH2 binding enrichment: 0.489

Memo: TSYSGYRCHRH [NKAPL_Y94_Y96C] , reported SH2 binding enrichment: 0.635

Memo: `TENAGYFFQVS` , reported SH2 binding enrichment: 0.654

Memo: AFLLLCFNDTH [BMP15_Y235_Y235C] , reported SH2 binding enrichment: 1

Memo: LVRPPYSYSAL [FOXI1_Y126] , reported SH2 binding enrichment: 1.72

Memo: ALRHYYKLNII [ETV6_Y402] , reported SH2 binding enrichment: 1.42

Memo: ADLTEYLSTHF [UQCRC1_Y219_YF] , reported SH2 binding enrichment: 0.539

Memo: PSGPTYRGAVP [ASAH1_Y43] , reported SH2 binding enrichment: 0.74

Memo: APRKVYDTQDD [ZFPL1_Y215_R218Q] , reported SH2 binding enrichment: 0.671

Memo: SCRENYSYSEE [LEMD3_Y258_D260Y] , reported SH2 binding enrichment: 1.08

Memo: VRHRRYKHTHE [CTCF_Y343] , reported SH2 binding enrichment: 0.714

---

Molecular target: Fyn (UniProt P06241)
Sequence (P06241 whole entry, looked up): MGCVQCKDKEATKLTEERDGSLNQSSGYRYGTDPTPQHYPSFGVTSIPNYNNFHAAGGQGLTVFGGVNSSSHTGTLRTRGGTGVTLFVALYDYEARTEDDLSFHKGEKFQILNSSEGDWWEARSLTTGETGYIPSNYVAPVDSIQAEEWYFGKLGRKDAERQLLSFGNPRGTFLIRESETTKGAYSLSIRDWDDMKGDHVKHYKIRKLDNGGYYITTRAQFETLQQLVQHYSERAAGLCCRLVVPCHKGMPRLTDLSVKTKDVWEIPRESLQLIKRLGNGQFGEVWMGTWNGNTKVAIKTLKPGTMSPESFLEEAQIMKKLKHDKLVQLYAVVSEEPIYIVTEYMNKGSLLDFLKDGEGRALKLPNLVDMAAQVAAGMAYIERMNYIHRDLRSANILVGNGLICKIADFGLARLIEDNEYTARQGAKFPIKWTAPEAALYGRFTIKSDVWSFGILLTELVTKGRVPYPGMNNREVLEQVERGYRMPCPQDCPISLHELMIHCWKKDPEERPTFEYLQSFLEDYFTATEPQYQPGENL
Test: phosphorylation enrichment, bacterial display (enrichment ratio); higher = better substrate or ligand; peptides without Tyr show the background
property-name: phosphorylation enrichment
API doc: respond with a numeric literal and nothing else, no unit.

Memo: VPHECYAKVFD [ALB_Y394_D389V] , reported phosphorylation enrichment: 0.564

Memo: CTTIHKNYMCN [TP53_Y234_Y234K] , reported phosphorylation enrichment: 0.395

Memo: YFWDGYMPRQY [GSS_Y270_R267W] , reported phosphorylation enrichment: 0.547

Memo: RVFRDYVLKSA [HTATIP2_Y111_D108Y_YF] , reported phosphorylation enrichment: 0.572

Memo: TNLVPYTRIHF [TUBA1A_Y262_P263T] , reported phosphorylation enrichment: 0.45

Memo: RFLERYIYNRE [HLA-DPB1_Y57] , reported phosphorylation enrichment: 0.842

Memo: SLIDGYFRLTA [JAK2_Y372_YF] , reported phosphorylation enrichment: 0.493

Memo: QDKDLYPCPGT [RLF_Y671_R668K] , reported phosphorylation enrichment: 0.652

Memo: KNNDGNIDYAE [MCFD2_Y135_Y135N] , reported phosphorylation enrichment: 0.462

Memo: GHLFANDWISI [BEST1_Y227_Y227N_YF] , reported phosphorylation enrichment: 0.399

Memo: SSSNPYSTVTV [ACTN2_Y599_M604V] , reported phosphorylation enrichment: 0.733

Memo: CTTIHYNFMSN [TP53_Y234_C238S_YF] , reported phosphorylation enrichment: 0.437

Memo: ITKQEYDEAGP [ACTA1_Y364] , reported phosphorylation enrichment: 0.563

Memo: KHGGNYVPAPE [OSCP1_Y237_K242E] , reported phosphorylation enrichment: 0.398

Memo: QGIYGYHHHMQ [UFSP2_Y287_Y290H] , reported phosphorylation enrichment: 9.98

Memo: KVNKIYYPDFI [LIG3_Y767] , reported phosphorylation enrichment: 0.607

Memo: NLMPAYYKCIQ [CYP21A2_Y190] , reported phosphorylation enrichment: 0.432

Memo: QEMMEYRRQIQ [DES_Y324_H326R] , reported phosphorylation enrichment: 0.491

Memo: MNKNAYHNVTT [ST3GAL6_Y306_A311T] , reported phosphorylation enrichment: 0.34

Memo: FGIAQYCCRMG [LRRK2_Y2023_YF] , reported phosphorylation enrichment: 0.423

Memo: ELTSVYDSRAR [SENP1_Y349] , reported phosphorylation enrichment: 0.697

Memo: HQEPVYSVAFS [TBL1X_Y509] , reported phosphorylation enrichment: 15.6

Memo: VDHFGYNKDDK [APOB_Y740_T741N] , reported phosphorylation enrichment: 0.485

Memo: KLLLKYSFHDA [RNF213_Y4141_V4146A] , reported phosphorylation enrichment: 0.367

Memo: AHLLQYNHQVK [LGALS3_Y221_R224Q] , reported phosphorylation enrichment: 0.706

Memo: KENITYMKREQ [L1TD1_Y24] , reported phosphorylation enrichment: 0.443

Memo: QRIHNYYEHRY [HCN4_Y554_D553N] , reported phosphorylation enrichment: 0.68

Memo: LNERHYGALIG [BPGM_Y92] , reported phosphorylation enrichment: 0.514

Memo: LAAPKYKLNVD [SMARCA2_Y1190_A1188P] , reported phosphorylation enrichment: 0.546

Memo: FVTCTYSPALN [TP53_Y126_S121F] , reported phosphorylation enrichment: 0.449

Memo: FPKVRYHWLVL [APTX_Y214_A212V_YF] , reported phosphorylation enrichment: 0.42

Memo: GMKIVYVYVKK [DNAI2_Y5_E2K] , reported phosphorylation enrichment: 0.466

Memo: PSRKDYETFQS [CTNND2_Y1154_P1159S_YF] , reported phosphorylation enrichment: 0.845

Memo: RHAASYSSDSE [REPS1_Y116] , reported phosphorylation enrichment: 0.737

Memo: IIWDSYTTNKV [GNB1_Y85] , reported phosphorylation enrichment: 0.46

Memo: HKLSSYEFDFE [BTK_Y40_Y39S_YF] , reported phosphorylation enrichment: 0.777

Memo: APRKVYDTQDD [ZFPL1_Y215_R218Q] , reported phosphorylation enrichment: 0.495

Memo: RRGTRYMSSRP [RPL21_Y13_F15S] , reported phosphorylation enrichment: 0.772

Memo: NHFKICNLCAE [PTEN_Y68_Y68C_YF] , reported phosphorylation enrichment: 0.415

Memo: WISNRYLDFSS [PRPH2_Y184] , reported phosphorylation enrichment: 0.524

Memo: TQPSPYAVFLF [RPGRIP1_Y823_R827L_YF] , reported phosphorylation enrichment: 6.88

Memo: VATRWYRSLEL [CDKL5_Y177_P180L] , reported phosphorylation enrichment: 0.385

Memo: GLDGRYLLRDS [SH2D1A_Y29_S28R] , reported phosphorylation enrichment: 0.372

Memo: FPMLNYKDIRK [CFAP221_Y798] , reported phosphorylation enrichment: 0.493

Memo: QNTGDYCDLYG [PTPN11_Y62_Y63C] , reported phosphorylation enrichment: 1.49

Memo: SVVMPYEPPEV [TP53_Y220_V218M] , reported phosphorylation enrichment: 0.56

Memo: HFGCVYRGTLL [MET_Y1093_H1094R] , reported phosphorylation enrichment: 0.862

Memo: VGSEDYGWDLT [SPTAN1_Y1792_R1794W] , reported phosphorylation enrichment: 0.384

Memo: NGVSYYINLCQ [IGF2R_Y2025] , reported phosphorylation enrichment: 0.449

Memo: GIVEDYRPRFY [ACVRL1_Y421_P424R] , reported phosphorylation enrichment: 0.447

Memo: DVMDFYKTLRG [NR3C1_Y30] , reported phosphorylation enrichment: 0.451

Memo: PICEGYALPHA [ACTC1_Y171_Y168C] , reported phosphorylation enrichment: 0.707

Memo: KAIMTYVPSFY [ACTN4_Y260_S262P] , reported phosphorylation enrichment: 0.52

Memo: LTRDIYKNDYY [ROS1_Y2110_A2106T] , reported phosphorylation enrichment: 1.82

Memo: IFETDYFQKGG [INSR_Y1189_R1191Q_YF] , reported phosphorylation enrichment: 0.502

Memo: IEDNEYTAREG [HCK_Y411] , reported phosphorylation enrichment: 0.576

Memo: EFISEYCGEII [EZH2_Y641] , reported phosphorylation enrichment: 0.692
